meta.source: paper PMC3004914

Item-by-item account of Rev (reversibility)
# experimental target: rNav1.2 sodium channels (HEK-293 cells) (Rattus norvegicus)
# measurement description: 5 Hz train protocol, QPatch automated patch-clamp
# Format: cell-based
# test conditions: 30 μM; Rev = A5/A1 after washout
outcome measure: Rev (reversibility)

{"compound": "CCc1nn(CCCN2CCN(c3cccc(Cl)c3)CC2)c(=O)n1CCOc1ccccc1 [NFZ, Nefazodone]", "experimental target": "rNav1.2 sodium channels (HEK-293 cells) (Rattus norvegicus)", "reported": 0.51}
{"compound": "CN(C)CC/C=C1/c2ccccc2Sc2ccc(Cl)cc21 [CHX, Chlorprothixene]", "experimental target": "rNav1.2 sodium channels (HEK-293 cells) (Rattus norvegicus)", "reported": 0.18}
{"compound": "Cc1ccc(-c2nc(C)c(CN3CCN(C(c4ccccc4)c4ccccc4)CC3)[nH]2)cc1 [LIF, Lifarizine]", "experimental target": "rNav1.2 sodium channels (HEK-293 cells) (Rattus norvegicus)", "reported": 0.01}
{"compound": "Cc1nc2sccn2c(=O)c1CCN1CCC(=C(c2ccc(F)cc2)c2ccc(F)cc2)CC1 [RIT, Ritanserin]", "experimental target": "rNav1.2 sodium channels (HEK-293 cells) (Rattus norvegicus)", "reported": 0.37}
{"compound": "Fc1ccc([C@@H]2CCNC[C@H]2COc2ccc3c(c2)OCO3)cc1 [PRX, Paroxetine]", "experimental target": "rNav1.2 sodium channels (HEK-293 cells) (Rattus norvegicus)", "reported": 0.34}
{"compound": "CN(C)CCC=C1c2ccccc2CCc2ccccc21 [AMI, Amitriptyline]", "experimental target": "rNav1.2 sodium channels (HEK-293 cells) (Rattus norvegicus)", "reported": 0.50}
{"compound": "CNCCCN1c2ccccc2CCc2ccccc21 [DMI, Desipramine]", "experimental target": "rNav1.2 sodium channels (HEK-293 cells) (Rattus norvegicus)", "reported": 0.43}
{"compound": "CN(C)CCCN1c2ccccc2Sc2ccc(Cl)cc21 [CPM, Chlorpromazine]", "experimental target": "rNav1.2 sodium channels (HEK-293 cells) (Rattus norvegicus)", "reported": 0.07}

* * *

# experimental target: rNav1.2 sodium channels (HEK-293 cells) (Rattus norvegicus, UniProt P04775)
# Sequence (P04775 whole entry): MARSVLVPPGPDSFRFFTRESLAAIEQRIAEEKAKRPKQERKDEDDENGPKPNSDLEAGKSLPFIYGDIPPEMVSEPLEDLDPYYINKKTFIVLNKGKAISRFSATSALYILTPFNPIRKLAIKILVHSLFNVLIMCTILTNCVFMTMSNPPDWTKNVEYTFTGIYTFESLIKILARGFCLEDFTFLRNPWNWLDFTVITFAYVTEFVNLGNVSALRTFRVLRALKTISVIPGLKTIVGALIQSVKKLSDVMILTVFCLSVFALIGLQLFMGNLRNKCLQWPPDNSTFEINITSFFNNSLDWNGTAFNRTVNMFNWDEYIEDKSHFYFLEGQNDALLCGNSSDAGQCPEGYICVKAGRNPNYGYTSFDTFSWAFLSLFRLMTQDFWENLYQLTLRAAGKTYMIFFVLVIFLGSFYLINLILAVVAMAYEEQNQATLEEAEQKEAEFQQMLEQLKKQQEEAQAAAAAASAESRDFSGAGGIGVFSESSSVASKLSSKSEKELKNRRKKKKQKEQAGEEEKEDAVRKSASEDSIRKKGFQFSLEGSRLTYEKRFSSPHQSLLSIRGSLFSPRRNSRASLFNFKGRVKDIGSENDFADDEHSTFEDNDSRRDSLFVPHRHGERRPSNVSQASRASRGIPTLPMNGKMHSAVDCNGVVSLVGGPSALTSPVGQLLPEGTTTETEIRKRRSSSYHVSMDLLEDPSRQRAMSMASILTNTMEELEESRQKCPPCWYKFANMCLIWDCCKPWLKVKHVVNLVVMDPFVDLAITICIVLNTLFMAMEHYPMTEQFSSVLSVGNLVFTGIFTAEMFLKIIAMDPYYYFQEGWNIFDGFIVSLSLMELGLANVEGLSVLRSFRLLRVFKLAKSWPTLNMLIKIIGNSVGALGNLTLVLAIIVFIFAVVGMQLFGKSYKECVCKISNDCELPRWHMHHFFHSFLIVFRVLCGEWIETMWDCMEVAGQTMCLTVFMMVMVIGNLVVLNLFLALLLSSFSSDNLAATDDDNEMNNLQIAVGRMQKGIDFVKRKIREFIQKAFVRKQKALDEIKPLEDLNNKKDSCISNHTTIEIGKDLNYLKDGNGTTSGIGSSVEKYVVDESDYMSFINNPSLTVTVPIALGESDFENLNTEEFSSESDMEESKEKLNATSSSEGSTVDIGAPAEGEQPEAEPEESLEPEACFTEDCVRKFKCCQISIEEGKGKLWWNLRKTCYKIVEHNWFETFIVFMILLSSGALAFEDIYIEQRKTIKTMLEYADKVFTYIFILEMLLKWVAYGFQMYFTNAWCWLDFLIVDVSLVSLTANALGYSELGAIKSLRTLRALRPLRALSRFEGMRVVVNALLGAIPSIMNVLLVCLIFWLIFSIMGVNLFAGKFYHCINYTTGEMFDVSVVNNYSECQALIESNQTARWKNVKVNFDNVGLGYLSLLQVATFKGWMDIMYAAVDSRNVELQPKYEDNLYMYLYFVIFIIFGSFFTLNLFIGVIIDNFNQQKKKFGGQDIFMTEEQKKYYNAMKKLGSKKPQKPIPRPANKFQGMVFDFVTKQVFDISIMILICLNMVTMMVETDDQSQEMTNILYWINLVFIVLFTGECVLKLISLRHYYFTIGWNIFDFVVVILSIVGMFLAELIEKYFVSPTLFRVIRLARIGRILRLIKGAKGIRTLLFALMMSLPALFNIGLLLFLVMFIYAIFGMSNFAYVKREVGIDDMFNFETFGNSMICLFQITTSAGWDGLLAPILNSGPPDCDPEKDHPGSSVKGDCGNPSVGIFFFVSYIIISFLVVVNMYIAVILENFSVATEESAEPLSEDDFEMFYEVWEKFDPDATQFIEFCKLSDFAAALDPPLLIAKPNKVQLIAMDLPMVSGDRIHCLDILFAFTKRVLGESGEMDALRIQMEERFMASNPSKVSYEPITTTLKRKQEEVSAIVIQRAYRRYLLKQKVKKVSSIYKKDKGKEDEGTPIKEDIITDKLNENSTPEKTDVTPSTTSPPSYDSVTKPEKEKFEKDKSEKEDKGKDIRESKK
# measurement description: steady-state inactivation protocol (availability curves), QPatch automated patch-clamp
# Assay type: cell-based
# test conditions: Ki-ΔV1/2 arith, arithmetic mean; 300 µM
pKi: −log10 of the molar value.

{"molecule": "Cc1cccc(C)c1OCC(C)N (stereo not shown)", "experimental target": "rNav1.2 sodium channels (HEK-293 cells) (Rattus norvegicus, UniProt P04775)", "pKi": 4.43}

* * *

# experimental target: rNav1.2 sodium channels (HEK-293 cells) (Rattus norvegicus, UniProt P04775)
# measurement description: steady-state inactivation protocol (availability curves), QPatch automated patch-clamp
# Type: cell-based
# test conditions: Ki−Kapp (inactivated state affinity), geometric mean; from apparent affinity, 100 µM
pKi: −log10 of the molar value.

{"compound": "COc1ccc(C(CN(C)C)C2(O)CCCCC2)cc1 (centres unmarked)", "pKi": 4.20}
{"compound": "CNCCC(Oc1ccccc1OC)c1ccccc1 (centres unmarked)", "pKi": 5.15}

* * *

# experimental target: rNav1.2 sodium channels (HEK-293 cells) (Rattus norvegicus, UniProt P04775)
# measurement description: steady-state inactivation protocol (availability curves), QPatch automated patch-clamp
# Format: cell-based
# test conditions: arithmetic mean; 10 µM; read-out: Kr arith
# Excerpt: A)–D) Peak amplitudes of evoked currents (5 Hz trains of 5 depolarizations from −90 to −10 mV) are plotted against time. Black dots: Control. Grey dots: Drug perfusion. […] Calculation of properties of inhibition is illustrated. […] E) Calculation of Kr and Ki values from steady-state availability curves. Standard steady-state inactivation protocols were used to measure the shift of steady-state availability curve caused by the drugs. […] State-dependence (SD) was quantified as the ratio Kr/Ki. […]
outcome measure: Kd

{"item smiles": "CN(C)CCC=C1c2ccccc2CCc2ccccc21", "experimental target": "rNav1.2 sodium channels (HEK-293 cells) (Rattus norvegicus, UniProt P04775)", "reported": "155 µM"}

* * *

# experimental target: rNav1.2 sodium channels (HEK-293 cells) (Rattus norvegicus, UniProt P04775)
# measurement description: steady-state inactivation protocol (availability curves), QPatch automated patch-clamp
# Type: cell-based
# test conditions: HEK293; 100 µM; read-out: Inh (inhibited fraction) at holding potential −150 mV
outcome measure: inhibition at 100 µM (%)

{"compound": "Nc1c(Br)cc(Br)cc1CN[C@H]1CC[C@H](O)CC1", "outcome measure": "inhibition at 100 µM", "reported": 33}
{"compound": "CCCCN1CCCCC1C(=O)Nc1c(C)cccc1C (stereo not shown)", "outcome measure": "inhibition at 100 µM", "reported": 14}
{"compound": "CC(NC(C)(C)C)C(=O)c1cccc(Cl)c1 (stereo not shown)", "outcome measure": "inhibition at 100 µM", "reported": 16}
{"compound": "CN1CCN2c3ncccc3Cc3ccccc3C2C1 (stereo not shown)", "outcome measure": "inhibition at 100 µM", "reported": 24}

* * *

# experimental target: rNav1.2 sodium channels (HEK-293 cells) (Rattus norvegicus)
# measurement description: 5 Hz train protocol, QPatch automated patch-clamp
# Type: cell-based
# test conditions: 30 μM; 500 s assigned where irreversible
Item-by-item account of τoff

{"compound": "CN(C)CCCN1c2ccccc2Sc2ccc(Cl)cc21 [CPM, Chlorpromazine]", "τoff / s": 9.67}
{"compound": "CCc1nn(CCCN2CCN(c3cccc(Cl)c3)CC2)c(=O)n1CCOc1ccccc1 [NFZ, Nefazodone]", "τoff / s": 10.93}
{"compound": "Fc1ccc([C@@H]2CCNC[C@H]2COc2ccc3c(c2)OCO3)cc1 [PRX, Paroxetine]", "τoff / s": 35.99}
{"compound": "CN(C)CCC=C1c2ccccc2CCc2ccccc21 [AMI, Amitriptyline]", "τoff / s": 16.95}

* * *

# experimental target: rNav1.2 sodium channels (HEK-293 cells) (Rattus norvegicus, UniProt P04775)
# measurement description: steady-state inactivation protocol (availability curves), QPatch automated patch-clamp
# Assay type: cell-based
# test conditions: arithmetic mean; 30 µM; read-out: Kr arith
pKd: −log10 of the molar value.
Item-by-item account of pKd

{"item smiles": "CN(C)CCCN1c2ccccc2Sc2ccc(Cl)cc21", "pKd": 4.07}
{"item smiles": "CN(C)CC/C=C1/c2ccccc2Sc2ccc(Cl)cc21", "pKd": 3.84}
{"item smiles": "Fc1ccc([C@@H]2CCNC[C@H]2COc2ccc3c(c2)OCO3)cc1", "pKd": 4.49}
{"item smiles": "CN(C)CCC=C1c2ccccc2CCc2ccccc21", "pKd": 3.89}
{"item smiles": "Cc1nc2sccn2c(=O)c1CCN1CCC(=C(c2ccc(F)cc2)c2ccc(F)cc2)CC1", "pKd": 3.65}

* * *

# experimental target: rNav1.2 sodium channels (HEK-293 cells) (Rattus norvegicus, UniProt P04775)
# measurement description: 5 Hz train protocol, QPatch automated patch-clamp
# Assay type: cell-based
# test conditions: HEK293; 100 μM; −90 mV holding potential, 5 Hz train; read-out: Inh (inhibited fraction)
Decide using inhibition at 100 µM: a value greater than or equal to 40% is 1 (yes), a smaller one is 0 (no).

{"compound": "Cc1ccc(C(=O)C(C)CN2CCCCC2)cc1 (stereo not drawn) [TOL, Tolperisone]", "group label": "0 (no)"}
{"compound": "CC(NC(C)(C)C)C(=O)c1cccc(Cl)c1 (stereo not drawn) [BPR, Bupropion]", "group label": "0 (no)"}
{"compound": "CCCCN1CCCCC1C(=O)Nc1c(C)cccc1C (stereo not drawn) [BPV, Bupivacaine]", "group label": "1 (yes)"}
{"compound": "CN1CCN2c3ncccc3Cc3ccccc3C2C1 (stereo not drawn) [MRZ, Mirtazapine]", "group label": "1 (yes)"}
{"compound": "CC12CC3CC(C)(C1)CC(N)(C3)C2 [MEM, Memantine]", "group label": "0 (no)"}
{"compound": "Nc1c(Br)cc(Br)cc1CN[C@H]1CC[C@H](O)CC1 [AMB, Ambroxol]", "group label": "1 (yes)"}

* * *

Item-by-item account of pKi
# experimental target: rNav1.2 sodium channels (HEK-293 cells) (Rattus norvegicus, UniProt P04775)
# measurement description: steady-state inactivation protocol (availability curves), QPatch automated patch-clamp
# Format: cell-based
# test conditions: geometric mean; from shift of availability curve, 100 µM; read-out: Ki−ΔV1/2 (inactivated state affinity)
# Source text: A)–D) Peak amplitudes of evoked currents (5 Hz trains of 5 depolarizations from −90 to −10 mV) are plotted against time. Black dots: Control. Grey dots: Drug perfusion. […] Calculation of properties of inhibition is illustrated. […] E) Calculation of Kr and Ki values from steady-state availability curves. Standard steady-state inactivation protocols were used to measure the shift of steady-state availability curve caused by the drugs. […] State-dependence (SD) was quantified as the ratio Kr/Ki. […]
pKi: −log10 of the molar value.

{"compound": "CC12CC3CC(C)(C1)CC(N)(C3)C2 [MEM, Memantine]", "experimental target": "rNav1.2 sodium channels (HEK-293 cells) (Rattus norvegicus, UniProt P04775)", "pKi": 3.96}
{"compound": "CN1CCN2c3ncccc3Cc3ccccc3C2C1 (stereo not drawn)", "experimental target": "rNav1.2 sodium channels (HEK-293 cells) (Rattus norvegicus, UniProt P04775)", "pKi": 5.25}
{"compound": "O=C(O)Cc1ccccc1Nc1c(Cl)cccc1Cl", "experimental target": "rNav1.2 sodium channels (HEK-293 cells) (Rattus norvegicus, UniProt P04775)", "pKi": 4.09}
{"compound": "CC(NC(C)(C)C)C(=O)c1cccc(Cl)c1 (stereo not drawn)", "experimental target": "rNav1.2 sodium channels (HEK-293 cells) (Rattus norvegicus, UniProt P04775)", "pKi": 4.59}
{"compound": "Nc1c(Br)cc(Br)cc1CN[C@H]1CC[C@H](O)CC1", "experimental target": "rNav1.2 sodium channels (HEK-293 cells) (Rattus norvegicus, UniProt P04775)", "pKi": 4.91}
{"compound": "CCCCN1CCCCC1C(=O)Nc1c(C)cccc1C (stereo not drawn)", "experimental target": "rNav1.2 sodium channels (HEK-293 cells) (Rattus norvegicus, UniProt P04775)", "pKi": 5.23}
{"compound": "CN(C)CCC=C1c2ccccc2CCc2ccccc21", "experimental target": "rNav1.2 sodium channels (HEK-293 cells) (Rattus norvegicus, UniProt P04775)", "pKi": 5.78}
{"compound": "Cc1ccc(C(=O)C(C)CN2CCCCC2)cc1 (stereo not drawn)", "experimental target": "rNav1.2 sodium channels (HEK-293 cells) (Rattus norvegicus, UniProt P04775)", "pKi": 4.51}
{"compound": "C[Si](C)(Cc1ccc(F)cc1)CN1CCCCC1", "experimental target": "rNav1.2 sodium channels (HEK-293 cells) (Rattus norvegicus, UniProt P04775)", "pKi": 4.85}
